Details: in water, 313.15 K
observed.property: solubility (mole fraction)
Numbers only.

Tell me solubility (mole fraction) reported for OC[C@@H](O)[C@@H](O[C@H]1O[C@H](CO)[C@@H](O)[C@H](O)[C@H]1O)[C@H](O)[C@@H](O)CO
0.0972

====

Settings: in DMF, 298.15 K
observed.property: solubility (mole fraction)
Answers are plain numbers.

Dear colleague, please send me the reported solubility (mole fraction) for OC[C@@H](O)[C@@H](O[C@H]1O[C@H](CO)[C@@H](O)[C@H](O)[C@H]1O)[C@H](O)[C@@H](O)CO when you can.
0.00761

====

Details: in methanol, 318.15 K
observed.property: solubility (mole fraction)
Give bare numbers.

Return the recorded solubility (mole fraction) value; entry: OC[C@@H](O)[C@@H](O[C@H]1O[C@H](CO)[C@@H](O)[C@H](O)[C@H]1O)[C@H](O)[C@@H](O)CO
0.000552
